System: 317291-083-R-J1-PDC complex spheroid growth
assayExplanation: Anticancer human tumor 317291-083-R-J1-PDC patient-derived soft tissue sarcoma cell line growth inhibition [Asc]
conditionDescription: curve of first compound; second compound 10 µM
Reported IC50 values follow for various molecules
// return numeric value only (unit: µM, not printed)

Ask: Which IC50 reading was recorded for the molecule O=C(c1ccc(F)c(F)c1Nc1ccc(I)cc1F)N1CC(O)([C@@H]2CCCCN2)C1 + Cc1c(S(C)(=O)=O)c(-c2cc(F)cc(N3CCN(c4ccc(NS(=O)(=O)c5ccc(NC(CCN6CCC(C(=O)OCCCP(=O)(O)O)CC6)CSc6ccccc6)c(S(=O)(=O)C(F)(F)F)c5)cc4)CC3)c2)c(-c2ccc(Cl)cc2)n1C(C)C ?
Result: 0.319

Ask: Request: C=CC(=O)N1CCN(c2nc(=O)n(-c3c(C)ccnc3C(C)C)c3nc(-c4c(O)cccc4F)c(F)cc23)C(C)C1 (stereo not given) + Cc1c(S(C)(=O)=O)c(-c2cc(F)cc(N3CCN(c4ccc(NS(=O)(=O)c5ccc(NC(CCN6CCC(C(=O)OCCCP(=O)(O)O)CC6)CSc6ccccc6)c(S(=O)(=O)C(F)(F)F)c5)cc4)CC3)c2)c(-c2ccc(Cl)cc2)n1C(C)C
Result: 9.46

Ask: Request: O=C(c1cc(Cc2n[nH]c(=O)c3ccccc23)ccc1F)N1CCN(C(=O)C2CC2)CC1 + Cc1c(S(C)(=O)=O)c(-c2cc(F)cc(N3CCN(c4ccc(NS(=O)(=O)c5ccc(NC(CCN6CCC(C(=O)OCCCP(=O)(O)O)CC6)CSc6ccccc6)c(S(=O)(=O)C(F)(F)F)c5)cc4)CC3)c2)c(-c2ccc(Cl)cc2)n1C(C)C
Result: 5.44

====

System: 317291-083-R-J1-PDC complex spheroid growth
assayExplanation: Anticancer human tumor 317291-083-R-J1-PDC cell line growth inhibition [Asc];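 note: compound exposure lasted seven days after spheroids formed for three days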;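 for viability, T/C: 100% = DMSO vehicle control wells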
conditionDescription: second compound 10 µM; first compound 0.316 µM; stronger effect = lower value
Reported viability, T/C values follow for various compounds

Use these answered entries as a reference point.
O=C(c1cc(Cc2n[nH]c(=O)c3ccccc23)ccc1F)N1CCN(C(=O)C2CC2)CC1 + Cc1c(S(C)(=O)=O)c(-c2cc(F)cc(N3CCN(c4ccc(NS(=O)(=O)c5ccc(NC(CCN6CCC(C(=O)OCCCP(=O)(O)O)CC6)CSc6ccccc6)c(S(=O)(=O)C(F)(F)F)c5)cc4)CC3)c2)c(-c2ccc(Cl)cc2)n1C(C)C
95.8%
CCN1CCN(Cc2ccc(Nc3ncc(F)c(-c4cc(F)c5nc(C)n(C(C)C)c5c4)n3)nc2)CC1 + Cc1c(S(C)(=O)=O)c(-c2cc(F)cc(N3CCN(c4ccc(NS(=O)(=O)c5ccc(NC(CCN6CCC(C(=O)OCCCP(=O)(O)O)CC6)CSc6ccccc6)c(S(=O)(=O)C(F)(F)F)c5)cc4)CC3)c2)c(-c2ccc(Cl)cc2)n1C(C)C
54.6%
COc1c(OCCCN2CCOCC2)ccc2c3n(c(=NC(=O)c4cnc(N)nc4)nc12)CCN3 + Cc1c(S(C)(=O)=O)c(-c2cc(F)cc(N3CCN(c4ccc(NS(=O)(=O)c5ccc(NC(CCN6CCC(C(=O)OCCCP(=O)(O)O)CC6)CSc6ccccc6)c(S(=O)(=O)C(F)(F)F)c5)cc4)CC3)c2)c(-c2ccc(Cl)cc2)n1C(C)C
19.2%
O=C(c1ccc(F)c(F)c1Nc1ccc(I)cc1F)N1CC(O)([C@@H]2CCCCN2)C1 + Cc1c(S(C)(=O)=O)c(-c2cc(F)cc(N3CCN(c4ccc(NS(=O)(=O)c5ccc(NC(CCN6CCC(C(=O)OCCCP(=O)(O)O)CC6)CSc6ccccc6)c(S(=O)(=O)C(F)(F)F)c5)cc4)CC3)c2)c(-c2ccc(Cl)cc2)n1C(C)C
50.2%
C=C(F)C(=O)N1CCN(c2nc(OCC3CCCN3C)nc3c2CCN(c2cccc4cccc(Cl)c24)C3)CC1CC#N (stereo unspecified) + Cc1c(S(C)(=O)=O)c(-c2cc(F)cc(N3CCN(c4ccc(NS(=O)(=O)c5ccc(NC(CCN6CCC(C(=O)OCCCP(=O)(O)O)CC6)CSc6ccccc6)c(S(=O)(=O)C(F)(F)F)c5)cc4)CC3)c2)c(-c2ccc(Cl)cc2)n1C(C)C
96.7%

--- query ---
Ask: Which viability, T/C reading was recorded for the compound C#Cc1c(F)ccc2cc(O)cc(-c3ncc4c(N5CC6CCC(C5)N6)nc(OCC56CCCN5CC(F)C6)nc4c3F)c12 (stereo unspecified) + Cc1c(S(C)(=O)=O)c(-c2cc(F)cc(N3CCN(c4ccc(NS(=O)(=O)c5ccc(NC(CCN6CCC(C(=O)OCCCP(=O)(O)O)CC6)CSc6ccccc6)c(S(=O)(=O)C(F)(F)F)c5)cc4)CC3)c2)c(-c2ccc(Cl)cc2)n1C(C)C ?
Result: 89.2%

====

Test system: 317291-083-R-J1-PDC complex spheroid growth
assayExplanation: Anticancer human tumor 317291-083-R-J1-PDC cell line growth inhibition [Asc];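 note: compound exposure lasted seven days after spheroids formed for three days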;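 for viability, T/C: 100% = DMSO vehicle control wells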
conditionDescription: second compound 0.316 µM; first compound 0.0316 µM; stronger effect = lower value
measuredMetric: viability, T/C (%)
// return numeric value only (unit: %, not printed)

Use these answered entries as a reference point.
O=C(c1cc(Cc2n[nH]c(=O)c3ccccc23)ccc1F)N1CCN(C(=O)C2CC2)CC1 + CNC(C)C(=O)NC1CN(S(=O)(=O)c2cccc(S(=O)(=O)N3CCC4CCC(C(=O)NC(c5ccccc5)c5ccccc5)N4C(=O)C(NC(=O)C(C)NC)C3)c2)CCC2CCC(C(=O)NC(c3ccccc3)c3ccccc3)N2C1=O
52
Cn1ncnc1[C@H]1c2n[nH]c(=O)c3cc(F)cc(c23)N[C@@H]1c1ccc(F)cc1 + Cc1c(S(C)(=O)=O)c(-c2cc(F)cc(N3CCN(c4ccc(NS(=O)(=O)c5ccc(NC(CCN6CCC(C(=O)OCCCP(=O)(O)O)CC6)CSc6ccccc6)c(S(=O)(=O)C(F)(F)F)c5)cc4)CC3)c2)c(-c2ccc(Cl)cc2)n1C(C)C
63

Ask: Which viability, T/C reading was recorded for the molecule O=C(c1ccc(F)c(F)c1Nc1ccc(I)cc1F)N1CC(O)([C@@H]2CCCCN2)C1 + Cc1c(S(C)(=O)=O)c(-c2cc(F)cc(N3CCN(c4ccc(NS(=O)(=O)c5ccc(NC(CCN6CCC(C(=O)OCCCP(=O)(O)O)CC6)CSc6ccccc6)c(S(=O)(=O)C(F)(F)F)c5)cc4)CC3)c2)c(-c2ccc(Cl)cc2)n1C(C)C ?
Result: 75.3

====

Tested on: 317291-083-R-J1-PDC complex spheroid growth
assayExplanation: Anticancer human tumor 317291-083-R-J1-PDC cell line growth inhibition [Asc];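 note: compound exposure lasted seven days after spheroids formed for three days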;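 for viability, T/C: 100% = DMSO vehicle control wells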
conditionDescription: second compound 0.1 µM; first compound 0.0316 µM; stronger effect = lower value
measuredMetric: viability, T/C (%)
// return numeric value only (unit: %, not printed)

Ask: Which viability, T/C reading was recorded for the compound C=CC(=O)N1CCN(c2nc(=O)n(-c3c(C)ccnc3C(C)C)c3nc(-c4c(O)cccc4F)c(F)cc23)C(C)C1 (stereo unspecified) + Cc1c(S(C)(=O)=O)c(-c2cc(F)cc(N3CCN(c4ccc(NS(=O)(=O)c5ccc(NC(CCN6CCC(C(=O)OCCCP(=O)(O)O)CC6)CSc6ccccc6)c(S(=O)(=O)C(F)(F)F)c5)cc4)CC3)c2)c(-c2ccc(Cl)cc2)n1C(C)C ?
Result: 84.4

====

Reported viability, T/C values follow for various compounds
Test system: 317291-083-R-J1-PDC complex spheroid growth
assayExplanation: Anticancer human tumor 317291-083-R-J1-PDC cell line growth inhibition [Asc];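 note: compound exposure lasted seven days after spheroids formed for three days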;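 for viability, T/C: 100% = DMSO vehicle control wells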
conditionDescription: second compound 0.1 µM; first compound 0.0316 µM; stronger effect = lower value
// return numeric value only (unit: %, not printed)

Use these answered entries as a reference point.
C#Cc1c(F)ccc2cc(O)cc(-c3ncc4c(N5CC6CCC(C5)N6)nc(OCC56CCCN5CC(F)C6)nc4c3F)c12 (stereo not drawn) + Cc1c(S(C)(=O)=O)c(-c2cc(F)cc(N3CCN(c4ccc(NS(=O)(=O)c5ccc(NC(CCN6CCC(C(=O)OCCCP(=O)(O)O)CC6)CSc6ccccc6)c(S(=O)(=O)C(F)(F)F)c5)cc4)CC3)c2)c(-c2ccc(Cl)cc2)n1C(C)C
86.5
CCN1CCN(Cc2ccc(Nc3ncc(F)c(-c4cc(F)c5nc(C)n(C(C)C)c5c4)n3)nc2)CC1 + Cc1c(S(C)(=O)=O)c(-c2cc(F)cc(N3CCN(c4ccc(NS(=O)(=O)c5ccc(NC(CCN6CCC(C(=O)OCCCP(=O)(O)O)CC6)CSc6ccccc6)c(S(=O)(=O)C(F)(F)F)c5)cc4)CC3)c2)c(-c2ccc(Cl)cc2)n1C(C)C
90.4

--- query ---
Ask: Which viability, T/C reading was recorded for the compound CNC(C)C(=O)NC1CN(S(=O)(=O)c2cccc(S(=O)(=O)N3CCC4CCC(C(=O)NC(c5ccccc5)c5ccccc5)N4C(=O)C(NC(=O)C(C)NC)C3)c2)CCC2CCC(C(=O)NC(c3ccccc3)c3ccccc3)N2C1=O (stereo not drawn) + Cc1c(S(C)(=O)=O)c(-c2cc(F)cc(N3CCN(c4ccc(NS(=O)(=O)c5ccc(NC(CCN6CCC(C(=O)OCCCP(=O)(O)O)CC6)CSc6ccccc6)c(S(=O)(=O)C(F)(F)F)c5)cc4)CC3)c2)c(-c2ccc(Cl)cc2)n1C(C)C ?
Result: 60.4
